The measured values listed here are drawn from the DeepSol protein solubility set.

- ASSAY PROCEDURE: soluble on expression in E. coli; label from the status in PepcDB or PDB records
READOUT: soluble on expression in E. coli

residue_string=MVKQLNSVEAFREFIHQYPLAVVHVMRDQCSVCHAVLPQIEDLMQSYPNVPLAVINQSQVEAIAGELNIFTVPVDLIFMNGKEMHRQGRFIDMQRFEHHLKQMNDSVNNDVDEHEYRK readout="soluble on expression in E. coli" result=soluble
residue_string=MAHHHHHHMGIYIFCLFPKGGRESKWGKPTITTKKVQGMPFPHPSHHHHHYHQKQQKTHHCHPRCTLVFLRQARAHKAITPPDVQRRTQRLNAQGKTTKKKSYDDGPPFFLFEKKKKRKAERHKEKGEKEGKGNVNTYRIVKEKEKVNKYLIYFYNNNNNYYYTYVCVYIHTTT readout="soluble on expression in E. coli" result="not soluble"
residue_string=MSLKIGIVKHLNARPLTWGFEKNKKHEIVPENPAILKDYLLNGTIDLGLISSIECIRNDHVLNTYYGTGVCAREKVRSILFFKNKRENFPPKQILTDNGSKTSVALVRVLIYEESGLIPYVEPTDSKLIQEKISNGIGSHMLFGDNALLAKWNPEFYEVKDLAQWWNELTGLGFIFALWASKKSLKLDDLIFIQSLEYGVSHIEEIISHESRLSSTLVREYLTKELHYKITEEDQKGFLLFREKCSQLNLLEGHHHHHH readout="soluble on expression in E. coli" result=soluble
residue_string=MLKSVLDALENGRLVELPDNDKSDALQFLATILEAVPSIPAGSNIVEIVLEHEKNSNTSLGFGWACPHARVNFDGDLCCAIGWSPAGIDYGIAGEPLVRLVVMFFVPENQRNTYLKEVSTLARVLKSNPEFQNLEPIGDLDQVRNTLLDMTHQAMSEGGKNYRARMIQLDTLTKSAGDAGHYWLKGMQIDALLVVAGPDIKPLVLSQNAELSRLATQDTQLVPAIASGNHYELQGWQIVRRSSTAYAGERVIYDCLAIKTRQGQGAPEAGG readout="soluble on expression in E. coli" result=soluble

Look at this sequence and give its reported soluble on expression in E. coli. MNGMCWIASYPKAGGHWLRCMLTSYVTGEPVETWPGIQAGVPHLEGLLRDGEAPSADPDEQVLLATHFTADRPVLRFYRESTAKVVCLIRNPRDAMLSLMRMKGIPPEDVEACRKIAETFIADEGFSSVRIWAGEGSWPENIRSWTDSVHESFPNAAVLAVRYEDLRKDPEGELWKVVDFLELGGRDGVADAVANCTLERMREMEERSKLLGLETTGLMTRGGKQLPFVGKGGQRKSLKFMGDDIEKAYADLLHGETDFAHYARLYGYAE soluble

Look at this sequence and give its reported soluble on expression in E. coli. MDPLFLLLPYISSVGKEGKFQSVKQMVMDEDYPGCSRLLQCKQGLDSLHHVADEKEVNDQKYHKYNLEKTLEWLKKKVQRTVNALKKGNISVGGGVKSSTFVRVKHEDASEEDYLRYAHGLISEYISEDLSKDLLKHLELPEISSPKEAEPPSKKRKLSDKPVEAGEDYTKFNSADFARKPPKKMTAAQKSLAKADKTGMKSLASFFSPKVKQEKN not soluble

Look at this sequence and give its reported soluble on expression in E. coli. MSLKPASVIIMDEHPIVRMSIEVLLGKNSNIQVVLKTDDSRTAIEYLRTYPVDLVILDIELPGTDGFTLLKRIKSIQEHTRILFLSSKSEAFYAGRAIRAGANGFVSKRKDLNDIYNAVKMILSGYSFFPSETLNFISNTRTPKGGHHDMPLSNREVTVLRYLANGMSNKEIAEQLLLSNKTISAHKANIFSKLGLHSIVELIDYAKSHELLEGHHHHHH soluble

Look at this sequence and give its reported soluble on expression in E. coli. MGSDKIHHHHHHMSKKVVVTGANGYIGAHLIAELQKHSQHFQTIAVDIDDKYIPKGVTFVSMDLLNEARKETLYKECGEPDICVHLAWRDGFQHNALSHIDDLPCHFHFLKNLADHGTTHFAIAGSFREYGSVNGMVDQDAVVIPDNFYTLAKSMLKQALEIYFKEKNICLQWLRPFTVYGNDSRNNSIMSKIIRWEDEGKQSFPFTSGNEEYDYVSVYEVARQIAAVISQREVDGIIDCCTGKPTRLGDKIEGFIRENHFKIRPEYGAFPKREYDSSVIYGDNRKITEIIKKCILF not soluble

Look at this sequence and give its reported soluble on expression in E. coli. MNLEKLEVSHDADSLCVVIEISKHSNIKYELDKESGALMVDRVLYGAQNYPANYGFVPNTLGSDGDPVDALVLSDVAFQAGSVVKARLVGVLNMEDESGMDEKLIALPIDKIDPTHSYVKDIDDLSKHTLDKIKHFFETYKDLEPNKWVKVKGFENKESAIKVLEKAIKAYQG soluble

Look at this sequence and give its reported soluble on expression in E. coli. MTEVIGIKFEENGAVEYVVPDKNYTKGDFVVVLEKKDKRLAQVVMENTVFPEVSLPVDLNRVEGLASKRDFARYDENLLKAEQSMGVVADLIAQNQLDMKVVDIVFPLNSSYVLISFVAEKRVDFRQLLEDLAAYFKTRIELRQISSREESKIYGGLGPCGRALCCSSFLGEFPPVSIKMAKNQSLSLNSGKMNGVCGRLMCCLSYEDDFYRDSKASYPDLGEEIETKEGRGQVIAIDVIAGTVKVMFEKGGAPLTYGVEEVQLNGKAAAALEHHHHHH soluble

Look at this sequence and give its reported soluble on expression in E. coli. MGSDKIHHHHHHMVEPSKVVGLISDFGDSPYTGIMRAVIKSISRELQIIDIDHSIPSFSPLAGAYVVAHTYQWLPKGSVIVAVVDPGVGTSRYALAVETENYVFIGPDNGVLYPAAASDGIKRVYALREKDVNSLARMKTSSTAGTVKPWSISRTFHGRDVFAPAGALIAAGHASLEELGDEIEPERMKRASIDHVEKLGPSTFRATVVYIDKFGNVALSIRPKKLGINLSLYKSVVLGTHTTSNTIRMGKTFGDANPGELVAYENSFGHLEIAVNRGNAAKKLGLELEARVEIELLENSGPAPNGSRGVRNADLLGVSSRSLGETIW not soluble

Look at this sequence and give its reported soluble on expression in E. coli. MGSDKIHHHHHHMRKYSQRHIPVMVREVIEFLKPEDEKIILDCTVGEGGHSRAILEHCPGCRIIGIDVDSEVLRIAEEKLKEFSDRVSLFKVSYREADFLLKTLGIEKVDGILMDLGVSTYQLKGENRGFTFEREEPLDMRMDLESEVTAQKVLNELPEEELARIIFEYGEEKRFARRIARKIVENRPLNTTLDLVKAVREALPSYEIRRRKRHFATKTFQAIRIYVNRELENLKEFLKKAEDLLNPGGRIVVISFHSLEDRIVKETFRNSKKLRILTEKPVRPSEEEIRENPRARSGRLRAAERIEEGGD not soluble

====

- ASSAY PROCEDURE: soluble on expression in E. coli; label from the status in PepcDB or PDB records
READOUT: soluble on expression in E. coli

residue_string=MTLSILVAHDLQRVIGFENQLPWHLPNDLKHVKKLSTGHTLVMGRKTFESIGKPLPNRRNVVLTSDTSFNVEGVDVIHSIEDIYQLPGHVFIFGGQTLFEEMIDKVDDMYITVIEGKFRGDTFFPPYTFEDWEVASSVEGKLDEKNTIPHTFLHLIRKK readout="soluble on expression in E. coli" result=soluble
residue_string=MAHHHHHHMRPSLPKKVLAWIASYPSYFIVDDPTEKDPSKARIRRASDRQPLDVALELYRWIPEEGISEAALLTKLSEVHRDYVKRIGLRHIVDSLSEWLSFTEAPGGGGGGAEGEEKVLLLRRLQTEVELERAIHTEESKLASGDENSLPVQIEDAEMERRWPKLKYEGTMSQQQASVARAQQRRGRGDI readout="soluble on expression in E. coli" result=soluble

====

- ASSAY PROCEDURE: soluble on expression in E. coli; label from the status in PepcDB or PDB records
READOUT: soluble on expression in E. coli

# annotated cases, reported soluble on expression in E. coli shown
residue_string=MAHHHHHHMKDKLRAMGHPAMDAADREDSHAGCFSDSVGMQTYSLNTSLGAMHIMSRLNNEMSFVEDTASGSFGVVKKGVLDLDRQCYAVKQTKRVISGEGDLQQRLQEVYTLSACSHPNVLRYFDGWVEDRAVFVRTEWLSDGSVADFDRPFSEALLRSVIHQIASALHWLLCHHITHRDVKPENILARKMEDGTYTFKLADFGLARPLFRDRPNTGEEFRGTNDDDGDRRYLSPEAFAISEFSQQKGEADVYALGASCVELMGGDPSLVRNGCYTGNFHIYSAELQNLVQWMTRLDPQERPDAFMVALLTVDPALKSTRGFARRMAAIEGLRASVAELEKKVAETNATEKEEGGA readout="soluble on expression in E. coli" result=soluble
residue_string=MIKRNLLVMGLAVLLSACGFQLRGTGTQELSIKELDLSARDAYGTTIKMLKQQLESSGVRVHAGAPYKLVLLSEENSQRTLSYTGGGNSAEYEIGTTLRYEILTHDNLHLLDDKLEVQKVFLHDGNNITGSDQESSETRKEMRRDLIQRMLIRLQLLTPEQLAQLQATAEAKAKAEADALEAARKAEAETPQQSPMELPNQLEHHHHHH readout="soluble on expression in E. coli" result=soluble
residue_string=MGSDKIHHHHHHMEIKKGTWIIKKGFAEMFKGGVIMDVTSAEQAKIAEEAGAVAVMALERVPADIRKEGGVARMASIAKIREIMEAVSIPVMAKVRIGHIAEAKILEELGVDFIDESEVLTPADDRFHINKHEFKVPFVCGARDLGEALRRIAEGAAMIRTKGEAGTGNVVEAVKHMRRVMEQIKQVTKMEDEELVAYGKEIGAPVELLREVKRLGRLPVVNFAAGGVATPADAALMMMLGADGVFVGSGIFKSKDPRKMAKAMVLAVTYWDNPRILLKISEDIGEPMRGLDVEELEVRMQERGW readout="soluble on expression in E. coli" result="not soluble"
residue_string=MSLSELIKRLITAMTLCLTALLVHAQEWTKEDSLRLRKLLDSDQELNLNQDAVRQIDFGSAVGTPRMSVEKKWMLPDESLPEALPKPKVVLSLMPYKANTPYNWDPVFQKKIRMDKNTWRGDPHYEMRHQRSYSNWAHNPMAGGVRKSLEEIRASGVRFRQLSERANGMMVNSVVMDSPIPLFGGSGVYINGGTIGGLDLMAVFTKNFWDKKGKERRERTLEVLRTYGDSTTVLINRPIEQIAREGHHHHHH readout="soluble on expression in E. coli" result="not soluble"

Look at this sequence and give its reported soluble on expression in E. coli. MKIIYCITKADNGGAQTHLIQLANHFCVHNDVYVIVGNHGPMIEQLDARVNVIIIEHLVGPIDFKQDILAVKVLAQLFSKIKPDVIHLHSSKAGTVGRIAKFISKSKDTRIVFTAHGWAFTEGVKPAKKFLYLVIEKLMSLITDSIICVSDFDKQLALKYRFNRLKLTTIHNGIADVPAVKQTLKSQSHNNIGEVVGMLPNKQDLQINAPTKHQFVMIARFAYPKLPQNLIAAIEILKLHNSNHAHFTFIGDGPTLNDCQQQVVQAGLENDVTFLGNVINASHLLSQYDTFILISKHEGLPISIIEAMATGLPVIASHVGGISELVADNGICMMNNQPETIAKVLEKYLIDSDYIKMSNQSRKRYLECFTEEKMIKEVEDVYNGKSTQ not soluble
